# Target Desc: UDP-N-acetylmuramoylalanine-D-glutamyl-lysine-D-alanyl-D-alanine ligase (Streptococcus pneumoniae R6, UniProt Q8DNV6)
# Sequence (Q8DNV6 whole entry): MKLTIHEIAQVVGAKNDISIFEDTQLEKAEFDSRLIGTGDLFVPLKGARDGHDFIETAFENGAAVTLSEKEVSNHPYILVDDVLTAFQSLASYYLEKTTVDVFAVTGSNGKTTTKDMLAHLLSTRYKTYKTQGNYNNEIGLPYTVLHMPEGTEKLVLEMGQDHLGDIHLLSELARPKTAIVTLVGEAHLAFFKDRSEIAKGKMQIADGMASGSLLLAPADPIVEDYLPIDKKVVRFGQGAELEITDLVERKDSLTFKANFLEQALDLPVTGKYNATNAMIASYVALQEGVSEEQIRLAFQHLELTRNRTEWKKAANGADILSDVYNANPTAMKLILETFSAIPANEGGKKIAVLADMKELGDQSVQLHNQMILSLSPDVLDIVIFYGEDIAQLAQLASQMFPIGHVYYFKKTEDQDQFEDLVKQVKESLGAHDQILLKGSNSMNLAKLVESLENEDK
# Measurement Protocol: Antibacterial activity against UDP-MurNAc-pentapeptide synthetase from Streptococcus pneumoniae.
pIC50: −log10 of the molar value.
Value Kind: pIC50

• CCOC(=O)C1CCc2c(sc(NC(=O)c3cc(S(=O)(=O)N(CC)CC)ccc3Cl)c2C#N)C1 (stereo not given) = 5.22
• CCN(CC)S(=O)(=O)c1cc(C(=O)Nc2sc3c(c2C#N)CCC(c2ccc(O)cc2)C3)c(Cl)cc1Cl (stereo not given) = 7.17
• N#Cc1c(NC(=O)c2cc(S(=O)(=O)N3CCOCC3)c(Cl)cc2Cl)sc2c1CCCC2 = 6.00
• CCN(CC)S(=O)(=O)c1ccc(Cl)c(C(=O)Nc2sc3c(c2C(N)=O)CCC3)c1 = 4.18
• N#Cc1c(NC(=O)c2cc(S(=O)(=O)N3CCOCC3)ccc2Cl)sc2c1CCCCC2 = 5.38
• CCN(CC)S(=O)(=O)c1cc(C(=O)Nc2sc3c(c2C#N)CCC3)c(Cl)cc1Cl = 5.28
• CCN(CC)S(=O)(=O)c1ccc(Cl)c(C(=O)Nc2sc3c(c2C#N)CCC3)c1 = 5.10
• N#Cc1c(NC(=O)c2cc(S(=O)(=O)N3CCOCC3)c(Cl)cc2Cl)sc2c1CCC(c1ccccc1)C2 (stereo not given) = 7.15
• CCN(CC)S(=O)(=O)c1ccc(Cl)c(C(=O)Nc2sc3c(c2C#N)CCCC3)c1 = 5.85

====

# Target Desc: UDP-N-acetylmuramoylalanine-D-glutamyl-lysine-D-alanyl-D-alanine ligase (Streptococcus pneumoniae R6)
Classify on IC50 using bucket A (below 2 µM), bucket B (2 µM to below 20 µM), bucket C (20 µM or more)

* CCN(CC)S(=O)(=O)c1ccc(Cl)c(C(=O)Nc2sc3c(c2C#N)CCC(c2ccc(O)cc2)C3)c1 (centres undefined) | bucket A
* CN(C)CCCNc1cc(Cl)c(C(=O)Nc2sc3c(c2C#N)CCC3)cc1S(=O)(=O)N1CCOCC1 | bucket C
* N#Cc1c(NC(=O)c2cc(S(=O)(=O)N3CCOCC3)c(F)cc2Cl)sc2c1CCC2 | bucket B
* N#Cc1c(NC(=O)c2cc(S(=O)(=O)N3CCOCC3)c(NCCCO)cc2Cl)sc2c1CCC2 | bucket C
* CNc1cc(Cl)c(C(=O)Nc2sc3c(c2C#N)CCC3)cc1S(=O)(=O)N1CCOCC1 | bucket C
* CNS(=O)(=O)c1ccc(Cl)c(C(=O)Nc2sc3c(c2C#N)CCC3)c1 | bucket B
* N#Cc1c(NC(=O)c2cc(S(=O)(=O)N3CCOCC3)ccc2Cl)sc2c1CCCC2 | bucket A
* N#Cc1c(NC(=O)c2cccc(S(=O)(=O)N3CCOCC3)c2)sc2c1CCC2 | bucket C
* N#Cc1c(NC(=O)c2cc(S(=O)(=O)N3CCOCC3)c(Cl)cc2Cl)sc2c1CCC(c1ccc(O)cc1)C2 (centres undefined) | bucket A
* CN(C)CCCNc1ccc(S(=O)(=O)N2CCOCC2)cc1C(=O)Nc1sc2c(c1C#N)CCC2 | bucket C
* N#Cc1c(NC(=O)c2cc(S(=O)(=O)N3CCOCC3)ccc2Cl)sc2c1CCC2 | bucket B
* CCN(CC)S(=O)(=O)c1ccc(Cl)c(C(C)Nc2sc3c(c2C#N)CCC3)c1 (centres undefined) | bucket C
* N#Cc1c(NC(=O)c2cc(S(=O)(=O)N3CCOCC3)ccc2Br)sc2c1CCC2 | bucket B
* N#Cc1c(NC(=O)c2cc(S(=O)(=O)N3CCOCC3)c(Cl)cc2Cl)sc2c1CCC2 | bucket A
* CCOC(=O)c1c(NC(=O)c2cc(S(=O)(=O)N(CC)CC)ccc2Cl)sc2c1CCC2 | bucket C
* CCN(CC)S(=O)(=O)c1ccc(Cl)c(C(=O)N(C)c2sc3c(c2C#N)CCC3)c1 | bucket C
* CCN(CC)S(=O)(=O)c1ccc(Cl)c(C(=O)Nc2sc3c(c2C#N)CCCCC3)c1 | bucket B
* CCN(CC)S(=O)(=O)c1ccc(Cl)c(C(=O)Nc2sc3c(c2CN)CCC3)c1 | bucket C
* N#Cc1c(NC(=O)c2cc(S(=O)(=O)Nc3ccccc3)ccc2Cl)sc2c1CCC2 | bucket C

Ref: ChEMBL document CHEMBL1148431
